Would you kindly list self-cleavage kobs at 640 uM GlcN6P for each of these variants?
B1: glmS ribozyme (parent)
chain: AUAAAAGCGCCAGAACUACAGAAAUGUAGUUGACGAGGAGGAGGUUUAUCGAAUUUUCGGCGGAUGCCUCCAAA

Variants of: B1
Assay: self-cleavage kobs at 640 uM GlcN6P; higher = faster cleavage; RNA array
Conditions: with glucosamine-6-phosphate
Variants at the floor of the assay were thinned out.

Challenge: I am curious: what self-cleavage kobs at 640 uM GlcN6P value has been reported for C8A C10A A42G G60U ?
Response given: < 1e-05 s⁻¹

Challenge: Do the same for G9U G13C A42U please
Response given: < 1e-05 s⁻¹

Challenge: Do the same for A6G U65C please
Response given: < 1e-05 s⁻¹

Challenge: Do the same for G38U G62C please
Response given: < 1e-05 s⁻¹

Challenge: Do the same for G40C A48C A52U please
Response given: < 1e-05 s⁻¹

Challenge: Do the same for G29A A48G please
Response given: < 1e-05 s⁻¹

Challenge: Do the same for C8U A12G C50U C68G please
Response given: 0.00022 s⁻¹

Challenge: Do the same for U65G C67A C71G please
Response given: 4.48e-05 s⁻¹

Challenge: Do the same for C11U G38C G51U U65A please
Response given: < 1e-05 s⁻¹

Challenge: Do the same for C19A G44U please
Response given: 2.94e-05 s⁻¹

Challenge: Do the same for A53U G66U please
Response given: 0.000307 s⁻¹

Challenge: Do the same for U30A G40C U49G please
Response given: < 1e-05 s⁻¹

Challenge: Do the same for G32A G41A C50U please
Response given: < 1e-05 s⁻¹

Challenge: Do the same for A48C A52U please
Response given: < 1e-05 s⁻¹

Challenge: Do the same for G41C G63C please
Response given: < 1e-05 s⁻¹

Challenge: Do the same for G7C G59C G66C please
Response given: < 1e-05 s⁻¹

Challenge: Do the same for A14G A53U C71G please
Response given: 0.000741 s⁻¹
